- Tested on: 485176-168-R4-J1-PDC complex spheroid growth
- assay details: Anticancer human tumor 485176-168-R4-J1-PDC patient-derived pancreatic adenocarcinoma cell line growth inhibition [RAS]
- measurement parameters: curve of first compound; second compound 0.0949 µM
Quick reference: IC50 of the listed items.
measure name: IC50 (nM)

compound	censoring qualifier	assay value
CC(=O)OC12COC1CC(O)C1(C)C(=O)C(O)C3=C(C)C(OC(=O)C(O)C(NC(=O)OC(C)(C)C)c4ccccc4)CC(O)(C(OC(=O)c4ccccc4)C21)C3(C)C (stereo not given) + CCn1c(-c2cccnc2C(C)OC)c2c3cc(ccc31)N1CCOC(CC(NC(=O)C(C(C)C)N(C)C(=O)C3(F)CCN(C(=O)C#CC(C)(C)N(C)C)CC3)C(=O)N3CCCC(N3)C(=O)OCC(C)(C)C2)C1	<	31.6
CC1(C)CCC(Nc2ncc(C(F)(F)F)c(-c3c[nH]c4c(P(C)(C)=O)c(C#N)ccc34)n2)CN1 (stereo not given) + CCn1c(-c2cccnc2C(C)OC)c2c3cc(ccc31)N1CCOC(CC(NC(=O)C(C(C)C)N(C)C(=O)C3(F)CCN(C(=O)C#CC(C)(C)N(C)C)CC3)C(=O)N3CCCC(N3)C(=O)OCC(C)(C)C2)C1	=	20.8
Cc1nc(N2CCC3(CC2)COC(C)C3N)c(CO)nc1Sc1ccnc(N)c1Cl (stereo not given) + CCn1c(-c2cc(N3CCN(C)CC3)cnc2C(C)OC)c2c3cc(ccc31)-c1csc(n1)CC(NC(=O)C1CC1C)C(=O)N1CCCC(N1)C(=O)OCC(C)(C)C2	>	10000
CC1(O)CCCC1n1c(=O)c(C(F)F)cc2cnc(NC3CCN(S(C)(=O)=O)CC3)nc21 (stereo not given) + CCn1c(-c2cccnc2C(C)OC)c2c3cc(ccc31)N1CCOC(CC(NC(=O)C(C(C)C)N(C)C(=O)C3(F)CCN(C(=O)C#CC(C)(C)N(C)C)CC3)C(=O)N3CCCC(N3)C(=O)OCC(C)(C)C2)C1	=	3320
CC(C)NCC(C(=O)N1CCN(c2ncnc3c2C(C)CC3O)CC1)c1ccc(Cl)cc1 (stereo not given) + CCn1c(-c2cccnc2C(C)OC)c2c3cc(ccc31)N1CCOC(CC(NC(=O)C(C(C)C)N(C)C(=O)C3(F)CCN(C(=O)C#CC(C)(C)N(C)C)CC3)C(=O)N3CCCC(N3)C(=O)OCC(C)(C)C2)C1	=	1290

----------
- System: 485176-168-R4-J1-PDC complex spheroid growth
- assay details: Anticancer human tumor 485176-168-R4-J1-PDC cell line growth inhibition [RAS];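 note: spheroids exposed to compounds for seven days before readout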
- measurement parameters: curve of first compound; second compound 0.03 µM

compound	u	censoring qualifier	IC50
CC(C)n1nc(-c2ccc3oc(N)nc3c2)c2c(N)ncnc21 + CCn1c(-c2cccnc2C(C)OC)c2c3cc(ccc31)N1CCOC(CC(NC(=O)C(C(C)C)N(C)C(=O)C3(F)CCN(C(=O)C#CC(C)(C)N(C)C)CC3)C(=O)N3CCCC(N3)C(=O)OCC(C)(C)C2)C1	nM	=	16.6
O=C(c1ccc(F)c(F)c1Nc1ccc(I)cc1F)N1CC(O)([C@@H]2CCCCN2)C1 + CCn1c(-c2cccnc2C(C)OC)c2c3cc(ccc31)N1CCOC(CC(NC(=O)C(C(C)C)N(C)C(=O)C3(F)CCN(C(=O)C#CC(C)(C)N(C)C)CC3)C(=O)N3CCCC(N3)C(=O)OCC(C)(C)C2)C1	nM	=	235
CCc1c2c(nc3ccc(O)cc13)-c1cc3c(c(=O)n1C2)COC(=O)[C@]3(O)CC + CCn1c(-c2cc(N3CCN(C)CC3)cnc2C(C)OC)c2c3cc(ccc31)-c1csc(n1)CC(NC(=O)C1CC1C)C(=O)N1CCCC(N1)C(=O)OCC(C)(C)C2	nM	=	11.2
Nc1ccn(C2OC(CO)C(O)C2(F)F)c(=O)n1 (stereo not given) + CCn1c(-c2cccnc2C(C)OC)c2c3cc(ccc31)N1CCOC(CC(NC(=O)C(C(C)C)N(C)C(=O)C3(F)CCN(C(=O)C#CC(C)(C)N(C)C)CC3)C(=O)N3CCCC(N3)C(=O)OCC(C)(C)C2)C1	nM	=	16.8
CC1(C)CCC(Nc2ncc(C(F)(F)F)c(-c3c[nH]c4c(P(C)(C)=O)c(C#N)ccc34)n2)CN1 (stereo not given) + CCn1c(-c2cc(N3CCN(C)CC3)cnc2C(C)OC)c2c3cc(ccc31)-c1csc(n1)CC(NC(=O)C1CC1C)C(=O)N1CCCC(N1)C(=O)OCC(C)(C)C2	nM	=	121
CCN1CCN(Cc2ccc(Nc3ncc(F)c(-c4cc(F)c5nc(C)n(C(C)C)c5c4)n3)nc2)CC1 + CCn1c(-c2cccnc2C(C)OC)c2c3cc(ccc31)N1CCOC(CC(NC(=O)C(C(C)C)N(C)C(=O)C3(F)CCN(C(=O)C#CC(C)(C)N(C)C)CC3)C(=O)N3CCCC(N3)C(=O)OCC(C)(C)C2)C1	nM	>	1000
CC(C)n1nc(-c2ccc3oc(N)nc3c2)c2c(N)ncnc21 + CCn1c(-c2cc(N3CCN(C)CC3)cnc2C(C)OC)c2c3cc(ccc31)-c1csc(n1)CC(NC(=O)C1CC1C)C(=O)N1CCCC(N1)C(=O)OCC(C)(C)C2	nM	=	13.8
NC1c2ccccc2OC12CCN(c1cnc3c(N4CCCc5ncccc54)n[nH]c3n1)CC2 (stereo not given) + CCn1c(-c2cccnc2C(C)OC)c2c3cc(ccc31)N1CCOC(CC(NC(=O)C(C(C)C)N(C)C(=O)C3(F)CCN(C(=O)C#CC(C)(C)N(C)C)CC3)C(=O)N3CCCC(N3)C(=O)OCC(C)(C)C2)C1	nM	>	10000
C[C@@H](NC(=O)c1ncnc(N)c1Cl)c1ncc(C(=O)Nc2cc(C(F)(F)F)c(Cl)cn2)s1 + CCn1c(-c2cccnc2C(C)OC)c2c3cc(ccc31)N1CCOC(CC(NC(=O)C(C(C)C)N(C)C(=O)C3(F)CCN(C(=O)C#CC(C)(C)N(C)C)CC3)C(=O)N3CCCC(N3)C(=O)OCC(C)(C)C2)C1	nM	>	10000
CC1(O)CCCC1n1c(=O)c(C(F)F)cc2cnc(NC3CCN(S(C)(=O)=O)CC3)nc21 (stereo not given) + CCn1c(-c2cc(N3CCN(C)CC3)cnc2C(C)OC)c2c3cc(ccc31)-c1csc(n1)CC(NC(=O)C1CC1C)C(=O)N1CCCC(N1)C(=O)OCC(C)(C)C2	nM	=	1660
CC(C)NCC(C(=O)N1CCN(c2ncnc3c2C(C)CC3O)CC1)c1ccc(Cl)cc1 (stereo not given) + CCn1c(-c2cccnc2C(C)OC)c2c3cc(ccc31)N1CCOC(CC(NC(=O)C(C(C)C)N(C)C(=O)C3(F)CCN(C(=O)C#CC(C)(C)N(C)C)CC3)C(=O)N3CCCC(N3)C(=O)OCC(C)(C)C2)C1	nM	=	1180
Cc1nc(N2CCC3(CC2)COC(C)C3N)c(CO)nc1Sc1ccnc(N)c1Cl (stereo not given) + CCn1c(-c2cccnc2C(C)OC)c2c3cc(ccc31)N1CCOC(CC(NC(=O)C(C(C)C)N(C)C(=O)C3(F)CCN(C(=O)C#CC(C)(C)N(C)C)CC3)C(=O)N3CCCC(N3)C(=O)OCC(C)(C)C2)C1	nM	>	10000
C=CC(=O)N1CCN(c2nc(OCC3CCCN3C)nc3c(F)c(-c4nc(N)cc(C)c4C(F)(F)F)c(Cl)cc23)C(C)C1 (stereo not given) + CCn1c(-c2cccnc2C(C)OC)c2c3cc(ccc31)N1CCOC(CC(NC(=O)C(C(C)C)N(C)C(=O)C3(F)CCN(C(=O)C#CC(C)(C)N(C)C)CC3)C(=O)N3CCCC(N3)C(=O)OCC(C)(C)C2)C1	nM	>	1000
CC(C)NCC(C(=O)N1CCN(c2ncnc3c2C(C)CC3O)CC1)c1ccc(Cl)cc1 (stereo not given) + CCn1c(-c2cc(N3CCN(C)CC3)cnc2C(C)OC)c2c3cc(ccc31)-c1csc(n1)CC(NC(=O)C1CC1C)C(=O)N1CCCC(N1)C(=O)OCC(C)(C)C2	nM	=	847
CC(=O)OC12COC1CC(O)C1(C)C(=O)C(O)C3=C(C)C(OC(=O)C(O)C(NC(=O)OC(C)(C)C)c4ccccc4)CC(O)(C(OC(=O)c4ccccc4)C21)C3(C)C (stereo not given) + CCn1c(-c2cccnc2C(C)OC)c2c3cc(ccc31)N1CCOC(CC(NC(=O)C(C(C)C)N(C)C(=O)C3(F)CCN(C(=O)C#CC(C)(C)N(C)C)CC3)C(=O)N3CCCC(N3)C(=O)OCC(C)(C)C2)C1	nM	<	31.6

----------
Quick reference: pIC50 of the listed items.
- System: 485176-168-R4-J1-PDC complex spheroid growth
- assay details: Anticancer human tumor 485176-168-R4-J1-PDC cell line growth inhibition [RAS];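 note: spheroids exposed to compounds for seven days before readout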
- measurement parameters: curve of first compound; second compound 0.00949 µM
pIC50: −log10 of the molar value.
measure name: pIC50

molecule	study target	measure name	censoring qualifier	assay value
CC1(C)CCC(Nc2ncc(C(F)(F)F)c(-c3c[nH]c4c(P(C)(C)=O)c(C#N)ccc34)n2)CN1 (configuration not stated) + CCn1c(-c2cc(N3CCN(C)CC3)cnc2C(C)OC)c2c3cc(ccc31)-c1csc(n1)CC(NC(=O)C1CC1C)C(=O)N1CCCC(N1)C(=O)OCC(C)(C)C2	485176-168-R4-J1-PDC complex spheroid growth	pIC50	=	7.08
C=CC(=O)N1CCN(c2nc(OCC3CCCN3C)nc3c(F)c(-c4nc(N)cc(C)c4C(F)(F)F)c(Cl)cc23)C(C)C1 (configuration not stated) + CCn1c(-c2cccnc2C(C)OC)c2c3cc(ccc31)N1CCOC(CC(NC(=O)C(C(C)C)N(C)C(=O)C3(F)CCN(C(=O)C#CC(C)(C)N(C)C)CC3)C(=O)N3CCCC(N3)C(=O)OCC(C)(C)C2)C1	485176-168-R4-J1-PDC complex spheroid growth	pIC50	<	6.00
NC1c2ccccc2OC12CCN(c1cnc3c(N4CCCc5ncccc54)n[nH]c3n1)CC2 (configuration not stated) + CCn1c(-c2cccnc2C(C)OC)c2c3cc(ccc31)N1CCOC(CC(NC(=O)C(C(C)C)N(C)C(=O)C3(F)CCN(C(=O)C#CC(C)(C)N(C)C)CC3)C(=O)N3CCCC(N3)C(=O)OCC(C)(C)C2)C1	485176-168-R4-J1-PDC complex spheroid growth	pIC50	<	5.00
CC1(O)CCCC1n1c(=O)c(C(F)F)cc2cnc(NC3CCN(S(C)(=O)=O)CC3)nc21 (configuration not stated) + CCn1c(-c2cccnc2C(C)OC)c2c3cc(ccc31)N1CCOC(CC(NC(=O)C(C(C)C)N(C)C(=O)C3(F)CCN(C(=O)C#CC(C)(C)N(C)C)CC3)C(=O)N3CCCC(N3)C(=O)OCC(C)(C)C2)C1	485176-168-R4-J1-PDC complex spheroid growth	pIC50	=	5.47
Cc1nc(N2CCC3(CC2)COC(C)C3N)c(CO)nc1Sc1ccnc(N)c1Cl (configuration not stated) + CCn1c(-c2cc(N3CCN(C)CC3)cnc2C(C)OC)c2c3cc(ccc31)-c1csc(n1)CC(NC(=O)C1CC1C)C(=O)N1CCCC(N1)C(=O)OCC(C)(C)C2	485176-168-R4-J1-PDC complex spheroid growth	pIC50	<	5.00
O=C(c1ccc(F)c(F)c1Nc1ccc(I)cc1F)N1CC(O)([C@@H]2CCCCN2)C1 + CCn1c(-c2cc(N3CCN(C)CC3)cnc2C(C)OC)c2c3cc(ccc31)-c1csc(n1)CC(NC(=O)C1CC1C)C(=O)N1CCCC(N1)C(=O)OCC(C)(C)C2	485176-168-R4-J1-PDC complex spheroid growth	pIC50	=	7.48
NC1c2ccccc2OC12CCN(c1cnc3c(N4CCCc5ncccc54)n[nH]c3n1)CC2 (configuration not stated) + CCn1c(-c2cc(N3CCN(C)CC3)cnc2C(C)OC)c2c3cc(ccc31)-c1csc(n1)CC(NC(=O)C1CC1C)C(=O)N1CCCC(N1)C(=O)OCC(C)(C)C2	485176-168-R4-J1-PDC complex spheroid growth	pIC50	<	5.00

FYI, the data here is from PubChem BioAssay AID2060906.
